experiment: chemical genetic growth profiling, strain panel (AID 1159580);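 further: tested at 20 µM; growth read once vehicle control cultures reached saturation at 30 °C; 1 = growth at the plate median or of vehicle wells; lower values mean less growth of the strain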
details: S. cerevisiae deletion strains, growth OD, locus YKL067W, strain YNK1, hits give low values
The campaign covered roughly 5,500 compounds. About 2,000 (36%) were called active. Not shown: some 18% with an inconclusive outcome. Some of the results follow.
Consider the following compounds; for each one, report its normalized growth.
Give bare numbers.

N#CCCCCOc1ccc2c(=O)cc(-c3ccccc3)oc2c1 0.956
Cc1cc(C(=O)O/N=C(/N)CSc2ncccc2C(F)(F)F)no1 0.993

Kindly review the next compound as well.
Can you share its normalized growth? I mean this compound: Cc1ccc(C(=O)O/N=C(/N)CSc2ncccc2C(F)(F)F)cc1 0.996

---

experiment: chemical genetic growth profiling, strain panel (AID 1159580)
details: S. cerevisiae deletion strains, growth OD, locus YMR307W, strain GAS1, hits give low values
The whole screen tested about 5,500 compounds, of which about 2,000 (36%) were called active. About 18% were inconclusive and are not listed. The list shows a part of the results.
Consider the following molecules; for each one, report its normalized growth.
Answers are plain numbers.

Some molecules with known normalized growth results, for comparison:
CCCCC1C(=O)N(c2ccccc2)N(c2ccccc2)C1=O 0.971
CCN(CC)CCNC(=O)c1ccc(NC(C)=O)cc1 1.01
CNCCc1c[nH]c2ccc(O)cc12 1
NCCc1cccc(O)c1 0.991

Can you share its normalized growth? I mean this molecule: Nc1ccc(C(=O)O)c(O)c1 0.991

---

Consider the following compounds; for each one, report its normalized growth.
experiment: chemical genetic growth profiling, strain panel (AID 1159580)
details: S. cerevisiae deletion strains, growth OD, locus YOR083W, strain WHI5, hits give low values
Screen size: about 5,500 compounds; about 2,000 (36%) were called active. About 18% were inconclusive and are not listed. This is one part of the list.
Give bare numbers.

compound	endpointResult
O=c1oc2ccccc2c(O)c1Cc1c(O)c2ccccc2oc1=O	0.968
O=c1cc(-c2ccc(O)cc2)oc2ccc(O)cc12	0.918
C/C(=C\C(=O)OCCCCCCCCC(=O)O)C[C@@H]1OC[C@H](C[C@@H]2O[C@H]2[C@@H](C)[C@H](C)O)[C@@H](O)[C@H]1O	0.996
CCCCC1C(=O)N(c2ccccc2)N(c2ccccc2)C1=O	1.02
C=C1C(N)CC2CC1C2(C)C (stereo not given)	0.994
ClC(Cl)=C(c1ccc(Cl)cc1)c1ccc(Cl)cc1	0.994
CC(=O)O.CC(=O)O.[Cd]	0.59
Nc1nc(N)c2nc(-c3ccccc3)c(N)nc2n1	0.989

Below are some compounds; for each one, tell me its normalized growth.
1. CC(=O)Oc1c(-c2ccccc2)oc2c(CC=C(C)C)c3c(c(OC(C)=O)c2c1=O)C=CC(C)(C)O3
2. CCN1CCN(c2cc3c(cc2F)c(=O)c(C(=O)O)cn3C2CC2)CC1
3. O=C(/C=C/c1ccccc1)c1ccc(O)cc1
4. CCCCCCc1ccc(O)cc1O
5. COc1ccc(C(=O)/C=C/c2ccccc2)cc1

1: 1.06; 2: 1.01; 3: 0.312; 4: 0.908; 5: 0.86

Below are some compounds; for each one, tell me its normalized growth.
1. Cn1nnnc1SCC1=C(C(=O)O)N2C(=O)C(NC(=O)C(O)c3ccccc3)C2SC1 (stereo not given)
2. COCCOC(=O)C1=C(C)NC(C)=C(C(=O)OC(C)C)C1c1cccc([N+](=O)[O-])c1 (stereo not given)
3. CC(=O)O[C@H]1C[C@@H](O)C(C)(C)C2C[C@@H](OC(C)=O)[C@]3(C)C(CC[C@@]4(C)[C@H](c5ccoc5)OC(=O)C5OC543)[C@]21C (stereo not given in full)
4. CC(=O)O[C@H]1C[C@H](O[C@H]2[C@@H](O)C[C@H](O[C@H]3[C@@H](O)C[C@H](O[C@H]4CC[C@@]5(C)C(CCC6C5C[C@@H](O)[C@]5(C)[C@@H](C7=CC(=O)OC7)CC[C@]65O)C4)O[C@@H]3C)O[C@@H]2C)O[C@H](C)[C@H]1O[C@@H]1O[C@H](CO)[C@@H](O)[C@H](O)[C@H]1O (stereo not given in full)
5. CC(C)(C)C(=O)C(Oc1ccc(Cl)cc1)n1cncn1 (stereo not given)

0.958
0.974
1.01
1
0.257

Below are some compounds; for each one, tell me its normalized growth.
1. COc1cc([C@@H]2c3cc4c(cc3[C@H](OC(C)=O)[C@H]3COC(=O)[C@H]23)OCO4)cc(OC)c1OC
2. O=C(O)c1cc(=O)c2ccccc2o1

[1, 0.982]

---

experiment: chemical genetic growth profiling, strain panel (AID 1159580)
details: S. cerevisiae deletion strains, growth OD, locus YKR001C, strain vps1, hits give low values
Among all 5,500 compounds or so, about 2,000 (36%) were called active. Roughly 18% stayed inconclusive and do not appear here. Some of the results follow.
measurementName: normalized growth
One number for each entry.

Some molecules with known normalized growth results, for comparison:
molecule	normalized growth
O=C(O)/C=C(\CC(=O)O)C(=O)O	0.956
CCC1C2CC3C4N(C)c5ccccc5C45CC(C2C5OC(C)=O)N3C1OC(C)=O (stereo not given)	1.03
CN1CCOC(c2ccccc2)c2ccccc2C1 (stereo not given)	1.03
CN1CCc2c(c3ccccc3n2Cc2ccccc2)C1	1.01

Can you share its normalized growth? I mean this molecule: CC1(C)O[C@@H]2CC3C4C[C@H](F)C5=CC(=O)C=C[C@]5(C)[C@@]4(F)[C@@H](O)C[C@]3(C)[C@]2(C(=O)CO)O1 (stereo not given in full) 1

---

experiment: chemical genetic growth profiling, strain panel (AID 1159580);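 further: tested at 20 µM; growth read once vehicle control cultures reached saturation at 30 °C; 1 = growth at the plate median or of vehicle wells; lower values mean less growth of the strain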
details: S. cerevisiae deletion strains, growth OD, locus YDR101C, strain arx1, hits give low values
Hit rate of the full screen: of about 5,500 compounds, about 2,000 (36%) were called active. Inconclusive results (about 18%) are left out. The list shows a part of the results.
measurementName: normalized growth
Give bare numbers.

compound	normalized growth
CC1(C)O[C@@H]2CC3C4CCC5=CC(=O)C=C[C@]5(C)[C@@]4(F)[C@@H](O)C[C@]3(C)[C@]2(C(=O)CO)O1 (some centres undefined)	0.992
CC[N+]1(C)CCCC(OC(=O)C(O)(c2ccccc2)c2ccccc2)C1 (centres undefined)	1.02
COc1ccc(C(=O)/C=C/c2ccccc2)cc1	0.867

Can you share its normalized growth? I mean this compound: CCOC(=O)C1C(C=C(C)C)C1(C)C (centres undefined) 1.01

---

Consider the following compounds; for each one, report its normalized growth.
experiment: chemical genetic growth profiling, strain panel (AID 1159580);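 further: tested at 20 µM; growth read once vehicle control cultures reached saturation at 30 °C; 1 = growth at the plate median or of vehicle wells; lower values mean less growth of the strain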
details: S. cerevisiae deletion strains, growth OD, locus YLR384C, strain iki3, hits give low values
Hit rate of the full screen: of about 5,500 compounds, about 2,000 (36%) were called active. Inconclusive results (about 18%) are left out. This is one part of the list.
Answers are plain numbers.

Some compounds with known normalized growth results, for comparison:
compound	endpointResult
CC(=O)OCC(=O)[C@@]1(O)CCC2C3CC[C@@H]4C[C@H](O)CC[C@]4(C)C3C(=O)C[C@@]21C (stereo partly drawn)	1.02
CC1=C2C(=CO[C@H](C)[C@H]2C)C(=O)C(C(=O)O)=C1O	0.979
FC(F)(F)C(Cl)Br (stereo not drawn)	1.02
CCOC(=O)C1C(C=C(C)C)C1(C)C (stereo not drawn)	0.995
N[C@@H]1CONC1=O	0.991
O=C(O)/C=C(\CC(=O)O)C(=O)O	0.984
O=C(O)c1nc2cc(Cl)c(Cl)cc2[nH]c1=O	1

Kindly review the next compound as well.
Can you share its normalized growth? I mean this compound: CC[N+]1(C)CCCC(OC(=O)C(O)(c2ccccc2)c2ccccc2)C1 (stereo not drawn) 1.02

---

experiment: chemical genetic growth profiling, strain panel (AID 1159580);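 further: tested at 20 µM; growth read once vehicle control cultures reached saturation at 30 °C; 1 = growth at the plate median or of vehicle wells; lower values mean less growth of the strain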
details: S. cerevisiae deletion strains, growth OD, locus YPR163C, strain tif3, hits give low values
Hit rate of the full screen: of about 5,500 compounds, about 2,000 (36%) were called active. About 18% were inconclusive and are not listed. The list shows a part of the results.
measurementName: normalized growth
Answers are plain numbers.

Some molecules with known normalized growth results, for comparison:
molecule	measurementName	endpointResult
COCCOC(=O)C1=C(C)NC(C)=C(C(=O)OC(C)C)C1c1cccc([N+](=O)[O-])c1 (stereo not given)	normalized growth	1.01
Clc1ccc(Cl)cc1	normalized growth	0.991
COC(=O)C1=C(C)NC(C)=C(C(=O)OCCN(C)Cc2ccccc2)C1c1cccc([N+](=O)[O-])c1 (stereo not given)	normalized growth	0.996
CC1(C)O[C@@H]2CC3C4C[C@H](F)C5=CC(=O)C=CC5(C)C4C(O)CC3(C)[C@]2(C(=O)CO)O1 (stereo not given in full)	normalized growth	0.988

Below are some molecules; for each one, tell me its normalized growth.
1. O=c1c2ccccc2[se]n1-c1ccccc1
2. O=C1CCc2cc(OCCCCc3nnnn3C3CCCCC3)ccc2N1
3. O=C1CC[C@]23C=CC(=O)NCCCCNCCCNC(=O)/C=C/c4ccc(c2c4)O[C@@H]3C1
4. CCC(/C=C/[C@@H](C)[C@H]1CCC2C3CC=C4C[C@@H](O)CC[C@]4(C)C3CC[C@@]21C)C(C)C (stereo not given in full)
5. COc1ccc(-c2coc3cc(OC)cc(O)c3c2=O)cc1
6. CCC(CCC(C)[C@H]1CCC2C3CC=C4C[C@@H](O)CC[C@]4(C)C3CC[C@@]21C)C(C)C (stereo not given in full)

1. 0.0717
2. 0.978
3. 0.99
4. 0.997
5. 0.973
6. 0.979
